- assay system: human FVIIa (Homo sapiens (Human))
- Sequence (P08709 61-212): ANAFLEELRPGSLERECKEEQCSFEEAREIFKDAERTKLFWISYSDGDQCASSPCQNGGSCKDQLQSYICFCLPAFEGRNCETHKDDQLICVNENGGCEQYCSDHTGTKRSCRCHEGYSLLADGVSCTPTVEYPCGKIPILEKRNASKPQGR
- Sequence (P08709 213-466): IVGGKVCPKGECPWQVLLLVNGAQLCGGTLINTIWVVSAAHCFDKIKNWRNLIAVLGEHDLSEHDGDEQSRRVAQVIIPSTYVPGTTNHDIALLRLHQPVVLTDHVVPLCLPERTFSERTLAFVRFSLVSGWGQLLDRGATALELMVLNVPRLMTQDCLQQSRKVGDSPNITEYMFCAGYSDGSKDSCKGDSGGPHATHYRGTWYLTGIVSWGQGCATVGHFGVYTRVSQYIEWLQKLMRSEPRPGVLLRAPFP
- Sequence (P13726 33-295 partner): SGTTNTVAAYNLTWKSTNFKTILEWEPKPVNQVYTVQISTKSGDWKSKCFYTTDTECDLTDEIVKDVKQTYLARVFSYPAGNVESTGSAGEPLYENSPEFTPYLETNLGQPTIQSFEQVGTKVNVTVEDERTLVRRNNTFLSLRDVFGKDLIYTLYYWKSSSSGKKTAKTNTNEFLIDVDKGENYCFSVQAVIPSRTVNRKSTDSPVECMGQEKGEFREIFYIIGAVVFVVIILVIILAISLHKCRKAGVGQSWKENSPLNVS
- protocol details: FVIIa Ki (37° C.), FVIIa-Xase assay
- Format: biochemical
- condition context: selectivity ratio, tissue kallikrein (HK1) vs FVIIa
quantity name: Ki(HK1)/Ki(FVIIa)

[P] Cc1cc2ccc1[C@@H](C(F)F)COC(=O)Nc1ccc(S(=O)(=O)C3CC3)c(c1)CN(C)C(=O)[C@@H]2Nc1ccc2c(N)nccc2c1.O=C(O)C(F)(F)F
[Q] CCS(=O)(=O)c1ccc2cc1CNC(=O)[C@H](Nc1ccc3c(N)nccc3c1)c1cc(C)c(c(C)c1)CCOC(=O)N2 [Comparator 3, reference compound]
[R] CCN(Cc1nccs1)C(=O)c1ccc2cc1CN(C)C(=O)[C@H](Nc1ccc3c(N)nccc3c1)c1ccc(c(C)c1)[C@@H](C)COC(=O)N2.O=C(O)C(F)(F)F
Order the items by recorded Ki(HK1)/Ki(FVIIa); the first position goes to the largest value. Provide the ranking by listing each label in its place in the requested order.
R, P, Q
